Target: Tyrosyl-tRNA synthetase, putative (Trypanosoma cruzi (strain CL Brener)) (UniProt Q4DSP6)
Sequence (Q4DSP6 as listed by the source): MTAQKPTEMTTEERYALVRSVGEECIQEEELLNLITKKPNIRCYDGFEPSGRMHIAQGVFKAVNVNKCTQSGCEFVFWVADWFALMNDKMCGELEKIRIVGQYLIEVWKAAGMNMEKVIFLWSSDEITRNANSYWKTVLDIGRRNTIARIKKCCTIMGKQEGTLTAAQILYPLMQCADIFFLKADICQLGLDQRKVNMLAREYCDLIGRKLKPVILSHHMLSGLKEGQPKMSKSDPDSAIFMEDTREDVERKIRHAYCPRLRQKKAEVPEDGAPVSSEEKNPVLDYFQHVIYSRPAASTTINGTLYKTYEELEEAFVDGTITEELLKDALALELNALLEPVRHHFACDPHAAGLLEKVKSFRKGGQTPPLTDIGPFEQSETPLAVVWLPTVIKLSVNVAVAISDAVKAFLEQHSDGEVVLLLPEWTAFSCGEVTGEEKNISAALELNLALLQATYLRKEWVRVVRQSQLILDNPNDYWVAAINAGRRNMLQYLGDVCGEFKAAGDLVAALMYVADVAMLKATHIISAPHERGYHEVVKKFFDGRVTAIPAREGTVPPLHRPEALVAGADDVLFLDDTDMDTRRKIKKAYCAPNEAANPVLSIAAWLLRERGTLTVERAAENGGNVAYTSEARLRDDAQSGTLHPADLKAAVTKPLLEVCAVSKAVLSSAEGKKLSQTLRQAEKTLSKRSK
Test: Trypanosoma cruzi tyrosyl tRNA synthetase (TcYRS) _High Tyrosine SOP; note: in the data most compounds retested in dose-response had high values
Assay type: functional
Design: scale not given: direction of the effect not stated beside the values
Conditions: 30 µM
readout-label: Percent Effect (%)
Give bare numbers, in %.

COc1cccn(CC(=O)N(C)Cc2ccoc2)c1=O
2.08
Cc1cc(CN2CCN(C(=O)NCc3ccc(C)s3)CC2)no1
2.46
Cc1nc[nH]c1-c1nc2cc(S(=O)(=O)N3CCCC3)ccc2n1C
7.53
O=C(Cn1nc2c(cc1=O)CSCC2)NC(Cc1ccccc1)C(=O)O (configuration not stated)
-2.12
COc1ccc(CCN2CCN(C(=O)c3scnc3C)CC2)cc1
6.38
Cc1ncsc1C(=O)NC1CCN(Cc2cccnc2)CC1
6.8
CCn1nc(C)c2nc(C(C)C)nc(NCCCO)c21
4.23
CC(C)NC(=O)COc1nc(C(C)C)no1
-0.529
CN(Cc1ccncc1)C(=O)Nc1cnn(CC2CCCO2)c1 (configuration not stated)
-1.59
Cc1ccc(N2CCCC(NCc3cscn3)C2)nn1 (configuration not stated)
12.3

Dear colleague, could you please provide Percent Effect for the compounds listed below?
1. Cc1cc(C)c(CNC(=O)N2CCCC2c2ccccc2)c(=O)[nH]1 (configuration not stated)
2. NC(=O)COc1cccc(C(=O)N2CCCC(n3cccn3)C2)c1 (configuration not stated)

Result:
1: 3.12; 2: 4.95

---

Kindly state Percent Effect for each of the entries shown.
Target: AMP-activated protein kinase, AMPK (Homo sapiens) (UniProt P54646+O43741+P54619+Q9UGJ0+Q9Y478+Q13131+Q9UGI9)
Assay: AMP-dependent Kinase enzyme assay. An in vitro enzyme assay that detects ADP turnover that is directly proportional to AMPK activity. This uses naive AMPK that is activated during the assay with MK-8722
Assay type: functional
Set-up: scale not given: direction of the effect not stated beside the values
Details: 30 µM
Give bare numbers, in %.

CCCS(=O)(=O)N1C[C@H]2OC(=O)N(CCc3cccc(Cl)c3)[C@H]2C1
-2.35
Cc1cccc(COC[C@]23COC[C@H]2CN(C(=O)c2ccsc2)C3)n1
1.58
O=C(C1CCC1)N1CCC2(COCc3cnc(N4CCOCC4)nc32)C1 (stereo unspecified)
-2.58
Cc1cc(C)n(C2CCCN(C(=O)CCCNc3ncccn3)C2)n1 (stereo unspecified)
-2.21
Cn1ccnc1CN1CCC2(CC1)CC(Oc1cccnc1)C2
4.85
COc1cc2nc3n(c(=O)c2cc1OC)CCN(C)CC3
11.9

Dear colleague, could you please provide Percent Effect for the molecules listed below?
1. Cc1csc(N2CCN(C(=O)CCNc3ncccn3)CC2)n1
2. COc1cc(C)c(CN2CCC3(CC2)C(C(=O)O)CC(=O)N3C)cc1C (stereo unspecified)
3. Cc1noc(C)c1CN1CC[C@H]2OCC[C@@H](C(=O)NCC3CC3)[C@@H]2C1
4. NC(=O)C1CCN(C(=O)c2ccn(-c3ccc(F)cc3)n2)C1 (stereo unspecified)
5. O=C(CCn1cnnc1)N1CCCC(c2ncc[nH]2)C1 (stereo unspecified)

Result:
1. -2.35
2. -9.44
3. 1.83
4. 0.129
5. 11.6

---

Target: Sialic acid-binding Ig-like lectin 9 (Homo sapiens) (UniProt Q9Y336)
Sequence (Q9Y336 whole entry): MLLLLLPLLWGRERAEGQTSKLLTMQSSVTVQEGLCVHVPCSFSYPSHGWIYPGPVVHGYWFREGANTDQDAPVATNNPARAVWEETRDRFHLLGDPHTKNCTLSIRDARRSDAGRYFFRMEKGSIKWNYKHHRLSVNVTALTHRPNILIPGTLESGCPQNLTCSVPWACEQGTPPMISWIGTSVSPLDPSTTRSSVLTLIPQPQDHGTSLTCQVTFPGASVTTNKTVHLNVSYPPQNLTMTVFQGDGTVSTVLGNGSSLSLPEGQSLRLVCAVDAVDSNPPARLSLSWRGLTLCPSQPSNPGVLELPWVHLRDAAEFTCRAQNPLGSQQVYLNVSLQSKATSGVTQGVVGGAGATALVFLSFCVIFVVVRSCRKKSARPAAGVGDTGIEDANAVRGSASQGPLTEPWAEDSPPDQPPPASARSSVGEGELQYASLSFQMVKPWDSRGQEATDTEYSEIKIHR
Experiment: Hs-Siglec9 ALPHAscreen SOP 20170721
Set-up: scale not given: direction of the effect not stated beside the values
Conditions: 10 µM
Kindly state Percent Effect for each of the entries shown.

Examples from the recorded data:
Cc1nc(O)cc(C2CCN(Cc3cccc(F)c3F)C2)n1 (stereo unspecified)
-0.896%
Cc1cc(NC(=O)c2nc(N3CCCC3)ncc2Cl)nc(C(C)C)n1
-2.54%
C1CC(c2noc(C3CC3)n2)CN(Cc2noc(C3CC3)n2)C1 (stereo unspecified)
11.5%
COc1ccc(C(O)CNc2c(C#N)c(=O)n(C)c(=O)n2C)cc1 (stereo unspecified)
-13.6%
CC(C)CS(=O)(=O)N1C[C@H]2C[C@H](C(=O)NCc3ccccc3)[C@@H](C1)O2
-2.68%
CC(=O)N(Cc1noc(C2CC2)n1)C1CCN(Cc2nccn2C)C1 (stereo unspecified)
-4.39%
COc1ccc(F)c(CN2CCC3(CCC(=O)N(CC(N)=O)C3)CC2)c1
-1.01%
CC(=O)N1CC(Cc2nccc3ccn(C)c23)C1
-7.93%

Dear colleague, could you please provide Percent Effect for the compounds listed below?
1. COc1ccc(Oc2cncc(C3CCCN3C(C)=O)n2)cc1 (stereo unspecified)
2. O=C(C1CCOCC1)N1CCc2ncnc(-c3ccc(F)cc3)c2CC1

Result:
["-7.65%", "2.72%"]

Request: I have this compound here, `Cn1cc(CCNC(=O)CCc2ccc3c(c2)OCO3)cn1` , and I need its recorded Percent Effect.
Result: 13.4%
